Origin of the recorded values: patent US8431596B2

assay-system: AXL (human catalytic domain) (Homo sapiens, UniProt P30530)
Construct: purchased Upstate Ltd. 14-512
Sequence (P30530 473-894): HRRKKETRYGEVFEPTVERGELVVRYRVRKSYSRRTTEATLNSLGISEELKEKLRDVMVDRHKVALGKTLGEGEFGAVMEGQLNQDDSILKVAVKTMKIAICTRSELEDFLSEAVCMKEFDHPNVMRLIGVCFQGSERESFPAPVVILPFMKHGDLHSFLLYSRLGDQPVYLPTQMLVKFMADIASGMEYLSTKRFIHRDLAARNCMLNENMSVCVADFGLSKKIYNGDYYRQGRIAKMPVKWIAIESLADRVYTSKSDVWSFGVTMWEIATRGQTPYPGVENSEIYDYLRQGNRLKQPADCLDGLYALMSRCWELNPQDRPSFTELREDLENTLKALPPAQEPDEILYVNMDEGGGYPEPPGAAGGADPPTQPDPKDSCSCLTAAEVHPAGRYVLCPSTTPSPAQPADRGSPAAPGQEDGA
test-details: AXL (human catalytic domain) Enzyme Activity Assay (IMAP fluorescence polarisation)
Type: biochemical
stated-conditions: further data set (WW-001 through WW-169, XX-001 through XX-469, YY-001 through YY-016, ZZ-001 through ZZ-003); 150 μM ATP
measured-endpoint: IC50

stdin: Return IC50 measured with AXL (human catalytic domain) (Homo sapiens, UniProt P30530) given this compound: `O=C(Nc1nc2cccc(-c3ccc(F)c(O)c3)n2n1)C1CC1`
stdout: 100 to 1000 nM

stdin: Subsequent entry: `FC(F)(F)c1cccc(Cn2cc(-c3cccc4nc(Nc5ccc(OCCN6CCCC6)cc5)nn34)cn2)c1`
stdout: 100 to 1000 nM

stdin: Subsequent entry: `CC(C)CCCn1cc(-c2cccc3nc(Nc4ccc(OCCN5CCCC5)cc4)nn23)cn1`
stdout: 100 to 1000 nM

----------
The entries below are paired with their reported pIC50.
assay-system: AXL (human catalytic domain) (Homo sapiens, UniProt P30530)
Construct: purchased Upstate Ltd. 14-512
test-details: AXL (human catalytic domain) Enzyme Activity Assay (IMAP fluorescence polarisation)
Assay type: biochemical
stated-conditions: further data set (WW-001 through WW-169, XX-001 through XX-469, YY-001 through YY-016, ZZ-001 through ZZ-003); 150 μM ATP
pIC50: −log10 of the molar value.

O=C(Nc1cccc(-c2cccc3nc(Nc4ccc(OCCN5CCCC5)cc4)nn23)c1)c1cccc(Cl)c1 = 6.00 to 7.00
COc1ccc(OC)c(-c2cccc3nc(Nc4ccc(OCCN5CCCC5)cc4)nn23)c1 = 5.00 to 6.00
c1cc(-c2ccc(Cn3cccn3)cc2)n2nc(Nc3ccc(OCCN4CCCC4)cc3)nc2c1 = 6.00 to 7.00
CCN(CC)CCC(=O)Nc1ccc(Nc2nc3cccc(-c4ccc5c(c4)OCCO5)n3n2)cc1 = 6.00 to 7.00
CCCn1cc(-c2cccc3nc(NC(=O)C4CC4)nn23)cn1 = 5.00 to 6.00

stdin: Which value of pIC50 has been reported for `O=C(Nc1nc2cccc(-c3ccc(-n4cccn4)cc3)n2n1)C1CC1` in the records?
stdout: 5.00 to 6.00

stdin: Subsequent entry: `CN1CCOc2cc(-c3cccc4nc(Nc5ccc(OCCN6CCCC6)cc5)nn34)ccc21`
stdout: 6.00 to 7.00

----------
assay-system: AXL (human catalytic domain) (Homo sapiens, UniProt P30530)
Construct: purchased Upstate Ltd. 14-512
test-details: AXL (human catalytic domain) Enzyme Activity Assay (IMAP fluorescence polarisation)
Type: biochemical
stated-conditions: first data set; recombinant AXL isoform 1 aa473-894, 150 μM ATP
pIC50: −log10 of the molar value.
The entries below are paired with their reported pIC50.

CC(C)(C)c1ccc(-c2cccc3nc(NC(=O)C4CC4)nn23)cc1 = 5.00 to 6.00
COCC(=O)Nc1nc2cccc(-c3ccc(OC)cc3)n2n1 = 5.00 to 6.00
CC(C)Oc1ccc(-c2cccc3nc(NC(=O)C4CC4)nn23)cc1 = 5.00 to 6.00
CC(C)(C)CNc1cccc2nc(NC(=O)C3CC3)nn12 = 5.00 to 6.00
Cn1cc(-c2cccc3nc(Nc4ccc(OCCN5CCCC5)cc4)nn23)cn1 = > 6.00

stdin: Which value of pIC50 has been reported for `O=C(Nc1nc2cccc(-c3ccc(CO)cc3)n2n1)C1CC1` in the records?
stdout: 5.00 to 6.00

stdin: Subsequent entry: `NC(=O)c1ccc(-c2cccc3nc(NC(=O)C4CC4)nn23)cc1`
stdout: 5.00 to 6.00

stdin: Subsequent entry: `CS(=O)(=O)Nc1cccc(-c2cccc3nc(NC(=O)C4CC4)nn23)c1`
stdout: 5.00 to 6.00

stdin: Subsequent entry: `CNCCOc1ccc(Nc2nc3cccc(-c4ccc5c(c4)OCO5)n3n2)cc1`
stdout: > 6.00

stdin: Subsequent entry: `O=C(Nc1nc2cccc(-c3ccc(Cl)cc3)n2n1)C1CC1`
stdout: 5.00 to 6.00

stdin: Subsequent entry: `COc1c(C)cc(-c2cccc3nc(NC(=O)C4CC4)nn23)cc1C`
stdout: 5.00 to 6.00

stdin: Subsequent entry: `CN(C)CCNC(=O)c1cccc(Nc2nc3cccc(-c4ccc5occc5c4)n3n2)c1`
stdout: > 6.00

stdin: Subsequent entry: `O=C(Nc1nc2cccc(-c3ccco3)n2n1)C1CC1`
stdout: 5.00 to 6.00

stdin: Subsequent entry: COc1ccc(-c2cccc3nc(NC(=O)C4CC4(F)F)nn23)cc1 (stereo not drawn)
stdout: 5.00 to 6.00

stdin: Subsequent entry: `O=C(Nc1nc2cccc(-c3ccc(C(F)(F)F)cc3)n2n1)C1CC1`
stdout: 5.00 to 6.00

stdin: Subsequent entry: `c1cc(-c2ccc3c(c2)CCO3)n2nc(Nc3ccc(OCCN4CCCCC4)cc3)nc2c1`
stdout: > 6.00

stdin: Subsequent entry: `O=C(Nc1nc2cccc(-c3ccc4c(c3)OCCCO4)n2n1)C1CC1`
stdout: 5.00 to 6.00

stdin: Subsequent entry: `NCC(=O)Nc1ccc(-c2cccc3nc(NC(=O)C4CC4)nn23)cc1`
stdout: 5.00 to 6.00

stdin: Subsequent entry: `COc1ccc(CNc2cccc3nc(NC(=O)C4CC4)nn23)cc1`
stdout: 5.00 to 6.00

----------
The entries below are paired with their reported IC50.
assay-system: AXL (human catalytic domain) (Homo sapiens, UniProt P30530)
Construct: purchased Upstate Ltd. 14-512
test-details: AXL (human catalytic domain) Enzyme Activity Assay (IMAP fluorescence polarisation)
Type: biochemical
stated-conditions: further data set (WW-001 through WW-169, XX-001 through XX-469, YY-001 through YY-016, ZZ-001 through ZZ-003); 150 μM ATP

Answered cases to consult:
c1cc(-c2ccc3[nH]ccc3c2)n2nc(Nc3ccc(OCCN4CCCC4)cc3)nc2c1 = 1000 to 10000 nM
Clc1cccc(SCCn2cc(-c3cccc4nc(Nc5ccc(OCCN6CCCC6)cc5)nn34)cn2)c1 = 100 to 1000 nM

stdin: Which value of IC50 has been reported for `CCN(CC)CCOc1cc(Nc2nc3cccc(-c4cccc(CO)c4)n3n2)ccn1` in the records?
stdout: 100 to 1000 nM

stdin: Subsequent entry: `c1ccc2sc(-c3cccc4nc(Nc5ccc(OCCCN6CCCCC6)cc5)nn34)cc2c1`
stdout: 100 to 1000 nM

stdin: Subsequent entry: `COc1ccc(-c2cccc3nc(Nc4ccc(N5CCNCC5)cc4)nn23)cc1`
stdout: ≤ 100 nM

stdin: Subsequent entry: `O=C(Nc1nc2cccc(-c3ccc4occc4c3)n2n1)C1CC1`
stdout: 100 to 1000 nM

stdin: Subsequent entry: COc1ccc(-c2cccc3nc(Nc4cccc(N(C)C(=O)C(C)N5CCCC5)c4)nn23)cc1 (stereo not drawn)
stdout: ≤ 100 nM

----------
The entries below are paired with their reported IC50.
assay-system: AXL (human catalytic domain) (Homo sapiens)
Construct: purchased Upstate Ltd. 14-512
Sequence (P30530 473-894): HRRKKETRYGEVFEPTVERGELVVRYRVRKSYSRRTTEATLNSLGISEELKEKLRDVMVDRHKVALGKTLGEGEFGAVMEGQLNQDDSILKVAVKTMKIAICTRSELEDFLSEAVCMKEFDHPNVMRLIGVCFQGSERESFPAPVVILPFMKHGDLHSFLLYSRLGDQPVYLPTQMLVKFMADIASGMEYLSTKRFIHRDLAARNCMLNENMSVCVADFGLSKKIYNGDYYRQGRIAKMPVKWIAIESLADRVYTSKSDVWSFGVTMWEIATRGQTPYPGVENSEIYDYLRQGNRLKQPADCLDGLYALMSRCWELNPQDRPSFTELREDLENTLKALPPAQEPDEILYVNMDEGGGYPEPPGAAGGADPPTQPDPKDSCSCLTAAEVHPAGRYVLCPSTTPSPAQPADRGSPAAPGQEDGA
test-details: AXL (human catalytic domain) Enzyme Activity Assay (IMAP fluorescence polarisation)
Assay type: biochemical
stated-conditions: first data set; recombinant AXL isoform 1 aa473-894, 150 μM ATP

Answered cases to consult:
Cn1ccc2cc(-c3cccc4nc(NC(=O)C5CC5)nn34)ccc21 = < 1000 nM
CCOc1ccc(-c2cccc3nc(NC(=O)C4CC4)nn23)cc1F = 1000 to 10000 nM
CC(C)Oc1cccc(-c2cccc3nc(NC(=O)C4CC4)nn23)c1 = 1000 to 10000 nM
C#CCOc1ccc(-c2cccc3nc(NC(=O)C4CC4)nn23)cc1 = 1000 to 10000 nM
COc1cc(-c2cccc3nc(NC(=O)C4CC4)nn23)ccc1F = 1000 to 10000 nM
CNCCOc1cccc(Nc2nc3cccc(-c4ccc5c(c4)OCO5)n3n2)c1 = < 1000 nM

stdin: Which value of IC50 has been reported for `c1cc(-c2ccc3c(c2)CCO3)n2nc(Nc3ccc(OCCN4CCCC4)cc3)nc2c1` in the records?
stdout: < 1000 nM

stdin: Subsequent entry: `COC(=O)c1ccc(-c2cccc3nc(NC(=O)C4CC4)nn23)cc1`
stdout: 1000 to 10000 nM

stdin: Subsequent entry: `CN(C)CCOc1ccc(Nc2nc3cccc(-c4ccc5c(c4)CCO5)n3n2)cc1`
stdout: < 1000 nM
